- Test target: human CCR6 (Homo sapiens, UniProt P51684)
- Sequence (P51684 whole entry): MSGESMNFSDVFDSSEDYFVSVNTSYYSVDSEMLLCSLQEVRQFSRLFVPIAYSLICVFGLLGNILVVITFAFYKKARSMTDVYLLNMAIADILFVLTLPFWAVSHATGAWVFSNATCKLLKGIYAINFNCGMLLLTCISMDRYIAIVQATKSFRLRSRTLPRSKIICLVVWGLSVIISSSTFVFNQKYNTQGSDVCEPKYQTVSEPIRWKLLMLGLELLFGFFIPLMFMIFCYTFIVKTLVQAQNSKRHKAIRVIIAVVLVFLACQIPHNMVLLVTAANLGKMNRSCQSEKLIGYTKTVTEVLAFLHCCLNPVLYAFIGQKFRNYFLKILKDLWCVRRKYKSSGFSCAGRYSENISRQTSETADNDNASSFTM
- Test description: Human CCR6-CRE reporter assay
- Assay type: cell-based
- Set-up: The second construct contained the open reading frame of human CCR6 in the pUNO1 backbone; host or cells: 293FT cells
- Protocol conditions: relative -Log IC50; 293FT cells transfected with human CCR6 and CRE-luciferase reporter; 6 μM Forskolin, 6 nM CCL20; 5 h
Measurement kind: IC50 (nM)

I. CC(C)c1nnc2ccc(-c3ccc(S(=N)(=O)[C@H]4CC[C@H](Nc5ccc(S(F)(F)(F)(F)F)cc5)CC4)cc3)cn12 (relative stereo) [Example 102]
II. N#Cc1cnc2ccc(-c3ccc(S(=O)(=O)[C@H]4CC[C@H](Nc5ccc(S(F)(F)(F)(F)F)cc5)CC4)cc3)cn12
Which record shows the lower IC50: the first, I , or the second, II ? Answer = label.
II

Every entry's value here was drawn from patent US20260070902A1.
